Experimental Target: A1R (Mus musculus, UniProt Q60612)
Sequence (Q60612 1-326): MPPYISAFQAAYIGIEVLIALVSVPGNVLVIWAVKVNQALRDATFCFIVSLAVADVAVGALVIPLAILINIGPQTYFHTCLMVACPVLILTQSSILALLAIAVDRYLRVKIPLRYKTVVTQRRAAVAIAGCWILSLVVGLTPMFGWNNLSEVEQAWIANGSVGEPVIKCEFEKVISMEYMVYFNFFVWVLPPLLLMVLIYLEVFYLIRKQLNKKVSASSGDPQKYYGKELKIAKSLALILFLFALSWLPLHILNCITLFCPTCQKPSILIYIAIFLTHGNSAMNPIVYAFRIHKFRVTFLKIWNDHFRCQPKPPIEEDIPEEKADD
Measurement Notes: TEpacVV FRET imaging of cAMP in primary neurons
Type: cell-based
Particulars: agonist, cAMP decrease; dMSN cell body; bath application
Property Name: pEC50
// field semantics: pEC50 = negative decimal log of concentration (mol/L)

Please report the measured pEC50 for "Nc1ncnc2c1ncn2[C@@H]1O[C@H](CO)[C@@H](O)[C@H]1O" tested on A1R (Mus musculus, UniProt Q60612).
6.95

---

Experimental Target: A1R (Mus musculus, UniProt Q60612)
Sequence (Q60612 1-326): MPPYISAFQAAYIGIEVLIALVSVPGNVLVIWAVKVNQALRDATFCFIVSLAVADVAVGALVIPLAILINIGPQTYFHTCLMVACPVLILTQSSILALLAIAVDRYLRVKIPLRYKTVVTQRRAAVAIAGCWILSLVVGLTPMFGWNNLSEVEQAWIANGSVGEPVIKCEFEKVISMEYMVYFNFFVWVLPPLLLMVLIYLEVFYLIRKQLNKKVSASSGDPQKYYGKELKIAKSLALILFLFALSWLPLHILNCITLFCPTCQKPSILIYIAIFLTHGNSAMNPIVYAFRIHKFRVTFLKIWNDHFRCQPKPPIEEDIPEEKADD
Measurement Notes: TEpacVV FRET imaging of cAMP in primary neurons
Assay type: cell-based
Particulars: agonist, cAMP decrease; dMSN; bath application
Property Name: EC50 (nM)
Numbers only here, please. The scale is nM.

Supply recorded EC50 for "C[C@@]1(O)[C@H](O)[C@@H](CO)O[C@H]1n1cnc2c(NC3CCCC3)nc(Cl)nc21" here.
14.6

Cited source for all entries: paper PMC5761078
